For each of the molecules below, state its mass density.
protocolConditions: 353.15 K; 101.33 kPa; Liquid; Vibrating tube method
Enter your answer as a number in kg/m3; do not include the unit.

Entry CCCCn1cc[n+](C)c1.N#C[B-](C#N)(C#N)C#N [1-butyl-3-methyl-1H-imidazolium tetracyanoborate] has what mass density? 969.82

Entry CCCCCCCCCC[n+]1ccn(C)c1.N#C[C-](C#N)C#N [3-decyl-1-methylimidazolium tricyanomethanide] has what mass density? 949.17

Entry CCCCCCCCn1cc[n+](C)c1.N#C[B-](C#N)(C#N)C#N [1-methyl-3-octylimidazolium tetracyanoborate] has what mass density? 937.45

Entry CCCCCCCCn1cc[n+](C)c1.N#CC(=C=[N-])C#N [1-methyl-3-octylimidazolium tricyanomethanide] has what mass density? 965.97

----------
protocolConditions: 353.15 K; 101.33 kPa; Liquid; Parallel plate method
readoutType: thermal conductivity (W/m/K)
Enter your answer as a number in W/m/K; do not include the unit.

Entry CCCCCC[n+]1ccn(C)c1.N#C[C-](C#N)C#N [3-hexyl-1-methylimidazolium tricyanomethanide] has what thermal conductivity? 0.1762

Entry CCCCCCCCn1cc[n+](C)c1.N#CC(=C=[N-])C#N [1-methyl-3-octylimidazolium tricyanomethanide] has what thermal conductivity? 0.1639

Entry CCCCCCCCn1cc[n+](C)c1.N#C[B-](C#N)(C#N)C#N [1-methyl-3-octylimidazolium tetracyanoborate] has what thermal conductivity? 0.1513

Entry CCCCCCCCCCn1cc[n+](C)c1.N#C[B-](C#N)(C#N)C#N [1-decyl-3-methyl-1H-imidazolium tetracyanoborate] has what thermal conductivity? 0.1586

Entry CCCCCCCCCC[n+]1ccn(C)c1.N#C[C-](C#N)C#N [3-decyl-1-methylimidazolium tricyanomethanide] has what thermal conductivity? 0.1593

Entry CCn1cc[n+](C)c1.N#C[C-](C#N)C#N [1-ethyl-3-methyl-1H-imidazolium tricyanomethanide] has what thermal conductivity? 0.1874

Entry CCCCCCn1cc[n+](C)c1.N#C[B-](C#N)(C#N)C#N [1-hexyl-3-methylimidazolium tetracyanoborate] has what thermal conductivity? 0.1656

Entry CCCCn1cc[n+](C)c1.N#C[B-](C#N)(C#N)C#N [1-butyl-3-methyl-1H-imidazolium tetracyanoborate] has what thermal conductivity? 0.1632

----------
protocolConditions: 348.15 K; 101.33 kPa; Liquid; Vibrating tube method
For each of the compounds below, state its mass density.
Enter your answer as a number in kg/m3; do not include the unit.

Entry CCCCCCCCCC[n+]1ccn(C)c1.N#C[C-](C#N)C#N [3-decyl-1-methylimidazolium tricyanomethanide] has what mass density? 952.2

Entry CCCCCC[n+]1ccn(C)c1.N#C[C-](C#N)C#N [3-hexyl-1-methylimidazolium tricyanomethanide] has what mass density? 988.4

Entry CCCCn1cc[n+](C)c1.N#C[B-](C#N)(C#N)C#N [1-butyl-3-methyl-1H-imidazolium tetracyanoborate] has what mass density? 973.37

Entry CCCCCCCCn1cc[n+](C)c1.N#C[B-](C#N)(C#N)C#N [1-methyl-3-octylimidazolium tetracyanoborate] has what mass density? 940.82

Entry CCCCCCCCCCn1cc[n+](C)c1.N#C[B-](C#N)(C#N)C#N [1-decyl-3-methyl-1H-imidazolium tetracyanoborate] has what mass density? 928.94

Entry CCn1cc[n+](C)c1.N#C[C-](C#N)C#N [1-ethyl-3-methyl-1H-imidazolium tricyanomethanide] has what mass density? 1046.66

Entry CCCCCCCCn1cc[n+](C)c1.N#CC(=C=[N-])C#N [1-methyl-3-octylimidazolium tricyanomethanide] has what mass density? 969.05

----------
assayExplanation: refractive index (Na D-line) (dimensionless)
protocolConditions: 283.15 K; 101.33 kPa; Liquid; Standard Abbe refractometry
readoutType: refractive index
Lab note: record just the number, no unit beside it.

Entry CCCCCCCCn1cc[n+](C)c1.N#CC(=C=[N-])C#N [1-methyl-3-octylimidazolium tricyanomethanide] has what refractive index? 1.5048

Entry CCCCn1cc[n+](C)c1.N#C[B-](C#N)(C#N)C#N [1-butyl-3-methyl-1H-imidazolium tetracyanoborate] has what refractive index? 1.4561

Entry CCn1cc[n+](C)c1.N#C[C-](C#N)C#N [1-ethyl-3-methyl-1H-imidazolium tricyanomethanide] has what refractive index? 1.516

Entry CCCCCCCCCC[n+]1ccn(C)c1.N#C[C-](C#N)C#N [3-decyl-1-methylimidazolium tricyanomethanide] has what refractive index? 1.5008

Entry CCCCCCCCCCn1cc[n+](C)c1.N#C[B-](C#N)(C#N)C#N [1-decyl-3-methyl-1H-imidazolium tetracyanoborate] has what refractive index? 1.4612

Entry CCCCCC[n+]1ccn(C)c1.N#C[C-](C#N)C#N [3-hexyl-1-methylimidazolium tricyanomethanide] has what refractive index? 1.5084

Entry CCCCCCCCn1cc[n+](C)c1.N#C[B-](C#N)(C#N)C#N [1-methyl-3-octylimidazolium tetracyanoborate] has what refractive index? 1.4603

----------
protocolConditions: 323.15 K; 101.33 kPa; Liquid; Parallel plate method
For each of the compounds below, state its thermal conductivity.
Enter your answer as a number in W/m/K; do not include the unit.

Entry CCCCCCCCn1cc[n+](C)c1.N#C[B-](C#N)(C#N)C#N [1-methyl-3-octylimidazolium tetracyanoborate] has what thermal conductivity? 0.1586

Entry CCCCn1cc[n+](C)c1.N#C[B-](C#N)(C#N)C#N [1-butyl-3-methyl-1H-imidazolium tetracyanoborate] has what thermal conductivity? 0.1732

Entry CCCCCCCCCCn1cc[n+](C)c1.N#C[B-](C#N)(C#N)C#N [1-decyl-3-methyl-1H-imidazolium tetracyanoborate] has what thermal conductivity? 0.164

Entry CCn1cc[n+](C)c1.N#C[C-](C#N)C#N [1-ethyl-3-methyl-1H-imidazolium tricyanomethanide] has what thermal conductivity? 0.1917

Entry CCCCCCCCn1cc[n+](C)c1.N#CC(=C=[N-])C#N [1-methyl-3-octylimidazolium tricyanomethanide] has what thermal conductivity? 0.1678

Entry CCCCCCCCCC[n+]1ccn(C)c1.N#C[C-](C#N)C#N [3-decyl-1-methylimidazolium tricyanomethanide] has what thermal conductivity? 0.1673

Entry CCCCCCn1cc[n+](C)c1.N#C[B-](C#N)(C#N)C#N [1-hexyl-3-methylimidazolium tetracyanoborate] has what thermal conductivity? 0.1722

Entry CCCCCC[n+]1ccn(C)c1.N#C[C-](C#N)C#N [3-hexyl-1-methylimidazolium tricyanomethanide] has what thermal conductivity? 0.181

----------
protocolConditions: 293.15 K; 101.33 kPa; Liquid; Vibrating tube method
Mark N for mass density values under 1000 kg/m3, and Y for everything at or above.

Decide: mass density of CCn1cc[n+](C)c1.N#C[C-](C#N)C#N [1-ethyl-3-methyl-1H-imidazolium tricyanomethanide] >= 1000 kg/m3? Y

Decide: mass density of CCCCCCCCCCn1cc[n+](C)c1.N#C[B-](C#N)(C#N)C#N [1-decyl-3-methyl-1H-imidazolium tetracyanoborate] >= 1000 kg/m3? N

----------
protocolConditions: 333.15 K; 101.33 kPa; Liquid; Vibrating tube method
readoutType: mass density (kg/m3)
Enter your answer as a number in kg/m3; do not include the unit.

Entry CCCCCC[n+]1ccn(C)c1.N#C[C-](C#N)C#N [3-hexyl-1-methylimidazolium tricyanomethanide] has what mass density? 997.93

Entry CCCCCCCCn1cc[n+](C)c1.N#CC(=C=[N-])C#N [1-methyl-3-octylimidazolium tricyanomethanide] has what mass density? 978.37

Entry CCCCn1cc[n+](C)c1.N#C[B-](C#N)(C#N)C#N [1-butyl-3-methyl-1H-imidazolium tetracyanoborate] has what mass density? 984.09

Entry CCn1cc[n+](C)c1.N#C[C-](C#N)C#N [1-ethyl-3-methyl-1H-imidazolium tricyanomethanide] has what mass density? 1056.86

Entry CCCCCCCCCC[n+]1ccn(C)c1.N#C[C-](C#N)C#N [3-decyl-1-methylimidazolium tricyanomethanide] has what mass density? 961.37

Entry CCCCCCCCn1cc[n+](C)c1.N#C[B-](C#N)(C#N)C#N [1-methyl-3-octylimidazolium tetracyanoborate] has what mass density? 950.94

Entry CCCCCCCCCCn1cc[n+](C)c1.N#C[B-](C#N)(C#N)C#N [1-decyl-3-methyl-1H-imidazolium tetracyanoborate] has what mass density? 938.85

----------
protocolConditions: 303.15 K; 101.33 kPa; Liquid; Parallel plate method
readoutType: thermal conductivity (W/m/K)
Enter your answer as a number in W/m/K; do not include the unit.

Entry CCCCCCCCCCn1cc[n+](C)c1.N#C[B-](C#N)(C#N)C#N [1-decyl-3-methyl-1H-imidazolium tetracyanoborate] has what thermal conductivity? 0.1667

Entry CCCCCC[n+]1ccn(C)c1.N#C[C-](C#N)C#N [3-hexyl-1-methylimidazolium tricyanomethanide] has what thermal conductivity? 0.1831

Entry CCCCCCn1cc[n+](C)c1.N#C[B-](C#N)(C#N)C#N [1-hexyl-3-methylimidazolium tetracyanoborate] has what thermal conductivity? 0.1741

Entry CCCCCCCCCC[n+]1ccn(C)c1.N#C[C-](C#N)C#N [3-decyl-1-methylimidazolium tricyanomethanide] has what thermal conductivity? 0.1674

Entry CCCCCCCCn1cc[n+](C)c1.N#C[B-](C#N)(C#N)C#N [1-methyl-3-octylimidazolium tetracyanoborate] has what thermal conductivity? 0.1682

Entry CCCCCCCCn1cc[n+](C)c1.N#CC(=C=[N-])C#N [1-methyl-3-octylimidazolium tricyanomethanide] has what thermal conductivity? 0.1675

Entry CCn1cc[n+](C)c1.N#C[C-](C#N)C#N [1-ethyl-3-methyl-1H-imidazolium tricyanomethanide] has what thermal conductivity? 0.1955

Entry CCCCn1cc[n+](C)c1.N#C[B-](C#N)(C#N)C#N [1-butyl-3-methyl-1H-imidazolium tetracyanoborate] has what thermal conductivity? 0.1756

The measured values listed here are drawn from the NIST ThermoML archive (doi:10.1007/s10765-014-1617-1).
